System: MS2 coat protein
run description: apparent KD of MS2 coat protein; designed switch direction (-1 OFF switch, 1 ON switch): 1; higher = weaker reporter binding
test parameters: Eterna round: R95; input ligand: microRNA oligo, concentration not stated
Mark true for reported apparent KD of MS2 coat protein of 40 nM or greater; mark false for anything smaller.

Worked cases, answers included:
{"entry sequence": "GAUAGACAUGAGGAUCACCCAUGUGACAAAACCACAGGAUAUCACACAGGAGUAACUGCGUGAGAAGGGUGAGACU [Edatinti] (puzzle: Same State 1)", "assayed system": "MS2 coat protein", "discrete label": "false"}
{"entry sequence": "GAGGAUGAUUUACAGGAUAUAUAGGAGAUGACAUGAGGAUCACCCAUGUAGGAGAUAGGAGUGAGAUAGAAGGGUAAGUGAUGUG [JR_SS2_Sub43] (puzzle: Same State 2)", "assayed system": "MS2 coat protein", "discrete label": "true"}
{"entry sequence": "GGUCCAGCCUGAGCUGGACUACAGCAUGUACAUGAGGAUCACCCAUGUCAUGUACAUGUUUUUUGUUUGUCUUAAAA [Sensorship 9 - Jieux - Sensor for hsa-mir-208a] (puzzle: Sensor for hsa-mir-208a)", "assayed system": "MS2 coat protein", "discrete label": "true"}
{"entry sequence": "UUUAUACAUGAGGAUCACCCAUGUCAAUGUAGUCGAGGAUAUGGGCAGCCGUGAGGCGUACUAGAAGGCGAAGAGG [JL-ss1-3.09 ViennaUCT mod] (puzzle: Same State 1)", "assayed system": "MS2 coat protein", "discrete label": "true"}
{"entry sequence": "AUAAAACAUGAGGAUCACCCAUGUCAACAAAGUCGAGGAUAUGGGCAAAUUAAAUAAGAACCAGAAGGCGAAUAAU [salish99_ss1_r3_024] (puzzle: Same State 1)", "assayed system": "MS2 coat protein", "discrete label": "true"}
{"entry sequence": "AGUCUACGGAAACGUAGACAGUGGAGCGUACAUGAGGAUCACCCAUGUCAUGUGAGAGCUACUUGUUCGUCUUGAGC [SENSOR #5] (puzzle: Sensor for hsa-mir-208a)", "assayed system": "MS2 coat protein", "discrete label": "false"}
{"entry sequence": "GGAGCCGGUACUGAGGAUAUUCGUAUUAAAACAUGAGGAUCACCCAUGUAGGCCAGAAGGCCUUGGGAGAAGGCAGAUCGGCUCC [Biseusra - 1] (puzzle: Same State 2)", "assayed system": "MS2 coat protein", "discrete label": "false"}
{"entry sequence": "UGUCCAGCCUGAGCUGGACAAAAGCAUGUACAUGAGGAUCACCCAUGUUCAUGUACAAGCUUUUUGCUCGUCUUAAG [salish99_208a_r3_032] (puzzle: Sensor for hsa-mir-208a)", "assayed system": "MS2 coat protein", "discrete label": "false"}

Item AAGAACAAGCGAAAGGCCCGUCUUAUAUAACAUGAGGAUCACCCAUGUAAGGUGAAAGUUAGAGAGUGGAGGUUGAA [JR_SHM208A_Sub047] (puzzle: Sensor for hsa-mir-208a) with apparent KD of MS2 coat protein of 40 nM or above?
true

Item GGAGGACAUGAGGAUCACCCAUGUGGAUGGGCGCUAGGAUAUGCGUGCGGGAAGAGUGGAGCAGAAGGAGUGGGUU [JR_SS1_Sub045] (puzzle: Same State 1) with apparent KD of MS2 coat protein of 40 nM or above?
false

Item GUGUGUUGCGGGCAGGAUAUGUACUUGAGUACAUGAGGAUCACCCAUGUGCGCCUGUUUCAGGCGACAGAAGGGCCUAUCGCGAC [JL-ss2-3.26 ViennaUCT mod] (puzzle: Same State 2) with apparent KD of MS2 coat protein of 40 nM or above?
true

Item AUAAGUUUGAUGCUCGUCCCUCCGUACAGACAUGAGGAUCACCCAUGUAGUCGGGAAGUAGCCCGGCCAGUAUGGCC [Biraza] (puzzle: Sensor for hsa-mir-208a) with apparent KD of MS2 coat protein of 40 nM or above?
false

Item AUGUGGAAGCCACAGGAUAUACUAGGGUACACAUGAGGAUCACCCAUGUGCGGCUAAAAGUGCUAGUAGAAGGGUGGUAAAGAAA [Diartire] (puzzle: Same State 2) with apparent KD of MS2 coat protein of 40 nM or above?
false

Item GGUCCAGCCUGAGCUGGACAAAAGCAUGUACAUGAGGAUCACCCAUGUUCAUGUACAAGCUUUUUGCUCGUCUUACA [salish99_208a_r3_084] (puzzle: Sensor for hsa-mir-208a) with apparent KD of MS2 coat protein of 40 nM or above?
false

Item GACAAGCAGGCUUUUUUCUCGUAGUGUAAACAUGAGGAUCACCCAUGUGCCCGCCCUGGAUCUUUGGAUCGCAGGAA [Onlari] (puzzle: Sensor for hsa-mir-208a) with apparent KD of MS2 coat protein of 40 nM or above?
false

Item AUCAUAGUAGCGCAGGAUAUCCAGGUCGAGACAUGAGGAUCACCCAUGUCAGCAGGAGGACCAGAGGAGAAGGGUGAGAAAAUAA [Bimaan] (puzzle: Same State 2) with apparent KD of MS2 coat protein of 40 nM or above?
false

Item ACGCAGCUGGGUGAGGAUAUUGGUGGUACAACAUGAGGAUCACCCAUGUCCGAAGCUCGGACCUCCGAGAAGGCGCCCGGCUGCG [Soinraesar Omei Mod 4] (puzzle: Same State 2) with apparent KD of MS2 coat protein of 40 nM or above?
true

====

System: MS2 coat protein
run description: apparent KD of MS2 coat protein; designed switch direction (-1 OFF switch, 1 ON switch): 1; higher = weaker reporter binding
test parameters: Eterna round: R95; input ligand: none
Reported apparent KD of MS2 coat protein values for a set of sequences
# unit: nM | format: bare number

{"entry sequence": "GUUAAACAUGAGGAUCACCCAUGUAAUAAUAUGGGAGGAUAUCAGAAAUUAUGUAUGAAAUGAGAAGGCCUAAUUG [Mat - Same State 1 - Mod of Eli - D79] (puzzle: Same State 1)", "apparent KD of MS2 coat protein, nM": 198}

Give the reported apparent KD of MS2 coat protein for this sequence. UUUUUAUAACAUGAGGAUCACCCAUGUGCGCGCACAAGGUUGUUGCUCGUCUUAUUUUUUUUUUUUUUUUUUUUUUU [viviankchen2] (puzzle: Sensor for hsa-mir-208a version 2)
44.1

Give the reported apparent KD of MS2 coat protein for this sequence. CUAAAACAUGAGGAUCACCCAUGUCAACAAAGUCGAGGAUAUGGGCAAAUAAAAUAAGAACCAGAAGGCGAAUAAU [salish99_SS1_r3_012] (puzzle: Same State 1)
485

Give the reported apparent KD of MS2 coat protein for this sequence. ACGCAGCUGGGUGAGGAUAUUGGUGGUACAACAUGAGGAUCACCCAUGUCCGAAGCUCGGACCUCCGAGAAGGCGCCCGGCUGCG [Soinraesar Omei Mod 4] (puzzle: Same State 2)
912

====

Reported apparent KD of MS2 coat protein values for a set of sequences
Test system: MS2 coat protein
run description: apparent KD of MS2 coat protein; designed switch direction (-1 OFF switch, 1 ON switch): 1; higher = weaker reporter binding
test parameters: input ligand: microRNA oligo, concentration not stated
# unit: nM | format: bare number

{"entry sequence": "GGAAAGAGGUUAGGAUAUGCAUGGCUGGGACAUGAGGAUCACCCAUGUAAUAGAAGAAAUCUAGGGUAGAAGGGACAAGGAAGG [ssng2 v2 a] (Eterna round: R96, puzzle: Same State NG 2)", "recorded value": 278}

State apparent KD of MS2 coat protein (MS2 coat protein) of AUUGCUUACGCAGGAUAUGAUGCGAAAAUUGCGUCAGAAGGGUGAAGUGACUCGUUGCAACAAGACAUGAGGAUCACCCAUGUC [SameState NG1 #92] (Eterna round: R96, puzzle: Same State NG 1) .
116

State apparent KD of MS2 coat protein (MS2 coat protein) of CAUCUAUACGUAGGAUAUGUAGGAUAUGCCUACAUGAGGAUCACCCAUGUUCGCAUGGCAGAAGGACAGAAGGACGAACUACUU [pwkr ssNG2 2FMN + 1F5.6] (Eterna round: R96, puzzle: Same State NG 2) .
174

State apparent KD of MS2 coat protein (MS2 coat protein) of GUAGCAUACCGAGGAUAUUCAUAUACAUGAGGAUCACCCAUGUUGGCCAGCAUUAGCUGGCCUUGGGAGAAGGCGGAAUGCUAC [Xeonanis - 20 Mod50] (Eterna round: R96, puzzle: Same State NG 2) .
79.4

State apparent KD of MS2 coat protein (MS2 coat protein) of AGCCGAGACUGAGGAUAUAGAAAUCUACAUGAGGAUCACCCAUGUAACAACACGUGGUAGUGAUUCUAGAAGGCGGCUCGGCGC [Omei SS(NG)2 Cv4] (Eterna round: R96, puzzle: Same State NG 2) .
279

State apparent KD of MS2 coat protein (MS2 coat protein) of AACAAUCUAUCUGAGGAUAUCAUGAAAAAAACAUGAGGAUCACCCAUGUGCAGGAAAACUGCAUAUGAGAAGGCAGAUAGAUUGG [salish99_SS2_r3_003] (Eterna round: R96, puzzle: Same State 2) .
494

State apparent KD of MS2 coat protein (MS2 coat protein) of UUCUCUCUGGUAGGAUAUGUAGGAUAUGUACAUGAGGAUCACCCAUGUCAGUUAAUGACAGAAGGAUAGAAGGACCAGAUCUCU [pwkr ssNG2 2FMN 1F5s.2] (Eterna round: R96, puzzle: Same State NG 2) .
72.4
